Where do the numbers come from? From ChEMBL document CHEMBL5096200.

ASSAY: Binding affinity to wildtype DENV3 protease assessed as inhibition constant using [Ac-[D-EDANS]KRRSWP[K-DABCYL]-AMIDE] as substrate by FRET-based enzymatic assay
Parameters: species or system dengue virus type 3
Positions of bridges follow the written chain, without caps; N, C: chain ends. Residues, ends and D or L forms follow the SMILES beside them.
ENDPOINT NAME: pKi
Numbers only, as −log10 of the molar value.

MOLECULE	pKi
CC[C@H](C)[C@@H]1NC(=O)[C@H](CCCNC(=N)N)NC(=O)[C@H](C)NC(=O)[C@H](CCCNC(=N)N)NC(=O)[C@@H](NC(=O)[C@@H]2CCCN2)CSSC[C@@H](C(=O)N[C@@H](CCCNC(=N)N)C(=O)O)NC(=O)CNC(=O)CNC1=O (H-PCRARIGGCR-OH; disulfide 2-9)	4.53

Hi there! I need pKi for each item below, if you can.
1. CC[C@H](C)[C@@H]1NC(=O)[C@H](CCCNC(=N)N)NC(=O)[C@H](C)NC(=O)[C@H](CCCNC(=N)N)NC(=O)[C@@H](NC(=O)[C@@H]2CCCN2)CSSC[C@@H](C(=O)N[C@@H](C)C(=O)O)NC(=O)CNC(=O)CNC1=O (H-PCRARIGGCA-OH; disulfide 2-9)
2. CC[C@H](C)[C@@H]1NC(=O)[C@H](Cc2c[nH]c3ccccc23)NC(=O)[C@H](C)NC(=O)[C@H](CCCNC(=N)N)NC(=O)[C@@H](NC(=O)[C@@H]2CCCN2)CSSC[C@@H](C(=O)N[C@H](CCCNC(=N)N)C(=O)O)NC(=O)CNC(=O)CNC(=O)[C@H](Cc2ccc(O)cc2)NC1=O
3. CC[C@H](C)[C@@H]1NC(=O)[C@H](CCCNC(=N)N)NC(=O)[C@H](C)NC(=O)[C@H](CCCNC(=N)N)NC(=O)[C@@H](NC(=O)c2ccccc2)CSSC[C@@H](C(=O)N[C@H](C)C(=O)O)NC(=O)CNC(=O)CNC(=O)[C@H](Cc2ccc(O)cc2)NC1=O

*A*
[3.11, 4.71, 4.48]
